This collection of values is drawn from patent US20100298141A1.

Listing of entries alongside the reported Plant response rating, Corn.
tested on: corn; test: Test A pre-/postemergence greenhouse test; type: in vivo, Zea mays; details: Postemergence, 125 g ai/ha; 0 to 100 scale where 0 is no effect and 100 is complete control
Write the value as a bare number.

Cn1nc(C(F)(F)F)c(C[S+]([O-])c2ccc(Cl)c[n+]2[O-])c1OCC(F)(F)F (racemic) [Compound 62]
50
Cc1cc[n+]([O-])c([S+]([O-])Cc2c(C(F)(F)C(F)(F)F)nn(C)c2OCC(F)(F)F)c1 (stereo not shown) [Compound 91]
20
CCn1nc(C(F)(F)F)c(CS(=O)(=O)c2cc(C)cc[n+]2[O-])c1OCC(F)(F)F [Compound 64]
40
Cn1nc(C(F)(F)C(F)(F)F)c(CS(=O)(=O)c2ccc(Cl)c[n+]2[O-])c1OCC(F)(F)F [Compound 100]
0
CC(c1c(C(F)(F)F)nn(CC(F)(F)F)c1Cl)[S+]([O-])c1cccc[n+]1[O-] (stereo not shown) [Compound 46]
0

Given the molecule O=S(=O)(Cc1c(C(F)(F)F)nn(CC(F)(F)F)c1Cl)c1cccc[n+]1[O-] [Compound 44] , what is its reported Plant response rating, Corn?
0

What value of measured Plant response rating, Corn is listed for Cc1cc([S+]([O-])Cc2c(C(F)(F)F)nn(C)c2OCC(F)(F)F)[n+]([O-])cc1Cl (stereo not shown) [Compound 70] ?
50

====

test system: Italian ryegrass; assay: Test C pre-/postemergence test; format: in vivo, Lolium multiflorum; conditions: Preemergence, 250 g ai/ha
Here the recorded Plant response rating (0 to 100), Ryegrass, Italian is given for each entry.
Just the number.

Guide cases for Plant response rating (0 to 100), Ryegrass, Italian, answers given:
CC(c1c(C(F)(F)F)nn(C)c1Cl)S(=O)(=O)c1cccc[n+]1[O-] (centres unmarked) [Compound 10]
98
Cc1cc[n+]([O-])c([S+]([O-])Cc2c(C(F)(F)F)nn(C)c2OC(F)F)c1 (centres unmarked) [Compound 1]
100
Cc1cc[n+]([O-])c(S(=O)(=O)C(C)c2c(C(F)(F)F)nn(C)c2Cl)c1 (racemic) [Compound 14]
100
Cn1nc(C(F)(F)F)c(C[S+]([O-])c2cccc[n+]2[O-])c1Cl (centres unmarked) [Compound 8]
95

Consider the record given below.
Which value of Plant response rating (0 to 100), Ryegrass, Italian has been reported for Cn1nc(C(F)(F)F)c(C[S+]([O-])c2cccc[n+]2[O-])c1OC(F)F (centres unmarked) [Compound 3] in the records?
100

====

system: spanishneedles; test: Test F preemergence test; type: in vivo, Bidens bipinnata; details: 16 g ai/ha, preemergence; scale 0 to 100
Parameter Plant response rating, Spanishneedles: see the listing below.
Provide a numeric answer; units are not to be included.

CCn1nc(C(F)(F)F)c(CS(=O)(=O)c2cc(C)cc[n+]2[O-])c1OCC(F)(F)F [Compound 64]
30

Param readout= Plant response rating, Spanishneedles; system= spanishneedles; entry= CC(Oc1c(C[S+]([O-])c2ccc(Cl)c[n+]2[O-])c(C(F)(F)F)nn1C)C(F)(F)F (centres unmarked) [Compound 87] ; returns value.
0

Entry Cn1nc(C(F)(F)F)c(C[S+]([O-])c2ccc(F)c[n+]2[O-])c1OCC(F)(F)F (centres unmarked) [Compound 67] , system spanishneedles: what Plant response rating, Spanishneedles was measured?
0

Form: Entry = Cn1nc(OC(F)F)c(CS(=O)(=O)c2cccc[n+]2[O-])c1C(F)(F)F [Compound 80] | System = spanishneedles | Plant response rating, Spanishneedles = ____
0

Under spanishneedles: Plant response rating, Spanishneedles value of Cn1nc(C(F)(F)F)c(C[S+]([O-])c2ccc(Cl)c[n+]2[O-])c1OCC(F)F (centres unmarked) [Compound 85] ?
50
